Quantity Measured: melting point

                                   compound  quantity_measured  value_measured
0  COC(=O)CCc1nc(CCc2ccc(C(=O)OC)cc2)ccc1OCCCC/C=C/c1ccc(OC)cc1      melting point     59 to 61 °C
1  NS(=O)(=O)c1ccc(-c2[nH]c3ccc(Cl)cc3c2-c2ccc(Cl)cc2)cc1      melting point   245 to 247 °C
2  CCN1C=C(C(=O)O)C(=O)CC1c1cccc(Cl)c1 (stereo not given)      melting point   143 to 145 °C

Q: Using the record for CCCN(C(=O)OCC(Cl)(Cl)Cl)C1CN(C(=O)Nc2ccc(C(F)(F)F)cc2)N=C1c1ccc(OC(F)F)c(C)c1 (stereo not given) , report its melting point.
Ans: 165 to 166 °C

Q: Now this one: `O=CCOc1ccc(Oc2ccccc2)cc1`
Ans: 79 to 81 °C

Q: Now this one: CC(Cc1ccncc1)(NC(=O)OC1C2CC3CC(C2)CC1C3)C(=O)NCCc1ccccc1 (stereo not given)
Ans: 176 °C

Q: Now this one: `O=C(O)CC=C(c1ccccc1)c1ccccc1`
Ans: 109 to 111 °C

Q: Now this one: `COc1cc(OC)c(-c2cccs2)cc1/C=C/C(=O)c1ccc(S(=O)(=O)Nc2ccc(Cl)cn2)cc1`
Ans: 228 to 229 °C

Q: Now this one: CN1C(=O)CN(C(=O)CN)C(c2ccccc2)c2cc(Cl)ccc21 (stereo not given)
Ans: 158 to 160 °C

Q: Now this one: `CNC(=O)[C@@H]1CSCc2c(O)cc(O)c(C)c2C(=O)OC[C@H](O)C(=O)N1`
Ans: 275 °C

Q: Now this one: `Cc1cn(Cc2cccc(Cl)c2)cc1C(=O)CC(=O)C(=O)O`
Ans: 148 to 149 °C

Q: Now this one: `Cc1nc2c(C)cccn2c(=O)c1CCN1CC=C(c2c[nH]c3ccccc23)CC1`
Ans: 210 to 212 °C

Q: Now this one: `CCOCc1nc2c(N)nc(C)c(C)c2n1NC1CCN(S(C)(=O)=O)CC1`
Ans: 127 to 131 °C

Q: Now this one: `Cc1c(Cc2cccnc2)ccc2ccc(C(=O)O)cc12`
Ans: 210 to 211 °C

Q: Now this one: CCn1c2ccccc2c2c3c(c(-c4ccccc4Cl)cc21)C(=O)NC3O (stereo not given)
Ans: 225 to 228 °C

Q: Now this one: `Cc1ccc(S(=O)(=O)N2CCN([C@H](C)[C@](O)(Cn3cncn3)c3ccc(F)cc3F)CC2)cc1`
Ans: 81 to 83 °C

Q: Now this one: `COC(=O)CCC(=O)c1cc(C(=O)N(C)C)cs1`
Ans: 98 to 100 °C

Q: Now this one: `NC(=O)c1cc2cc(F)ccc2nc1N`
Ans: 232 to 236 °C

Q: Now this one: `Cc1cc(SCc2ccc(OCc3ccc(C(C)(C)C)cc3)cc2)ccc1OCC(=O)O`
Ans: 135 to 137 °C

Q: Now this one: N[C@@H]1C[C@H](C2CCCCC2)c2ccccc2NC1=O (relative stereo)
Ans: 96 to 98 °C

###

Quantity Measured: melting point

>>> df
                                   compound  value_measured
0            CCn1cc(C(=O)O)c(=O)c2cc(C)sc21   229 to 230 °C
1  O=C(NC1CCCCC1)NC1N=C(C2CCCCC2)c2ccccc2N(CC(=O)N2CC3CCC(CC3)C2)C1=O (racemic)   195 to 197 °C
2       O=C(O)COc1cc2onc(-c3ccccc3F)c2cc1Cl   214 to 215 °C

Q: Using the record for `CC(C)(O)Cc1ccc2ccccc2c1` , report its melting point.
Ans: 79 to 80 °C

Q: Now this one: `CC(C)(C)C(=O)Oc1ccc(-c2nnn(CCO)n2)cc1`
Ans: 92 to 95 °C
